Just for reference, ChEMBL document CHEMBL4739717 is where these values come from.

Below, each entry is listed with its recorded Emax at 2.7 µM.
- experimental.details: Induction of chondrogenesis in human MSC assessed as maximum activity at 2700 nM incubated for 6 days by rhodamine B and Nile red staining based imaging analysis relative to control
- Assay type: functional
- assay.setup: BMMSC, 144 h, time 6 day
Record the value in %, omitting the unit from your answer.

Examples from the recorded data:
[
  {
    "smiles.repr": "CC(C)Nc1cncc(-c2ccc3[nH]nc(-c4nc5c(-c6cc(F)cc(NCCN(C)C)c6)cncc5[nH]4)c3n2)c1",
    "Emax at 2.7 µM / %": 96.8
  },
  {
    "smiles.repr": "CC(C)Oc1cncc(C(=O)Nc2c[nH]nc2C(=O)Nc2ccc(OC3CCN(C)CC3)nc2)c1",
    "Emax at 2.7 µM / %": 140
  },
  {
    "smiles.repr": "Cc1cn(-c2cncc3[nH]c(-c4n[nH]c5ccc(-c6cncc(NC(=O)C(C)(C)C)c6)nc45)nc23)cn1",
    "Emax at 2.7 µM / %": 150
  },
  {
    "smiles.repr": "CC(C)NC(=O)c1n[nH]c2ccc(-c3cncc(CN4CCC(F)(F)CC4)c3)cc12",
    "Emax at 2.7 µM / %": 104
  },
  {
    "smiles.repr": "O=C(Nc1cc2cc(-c3cncc(N[C@H]4CCNC[C@@H]4F)n3)ccc2cn1)C1CC1",
    "Emax at 2.7 µM / %": 68
  },
  {
    "smiles.repr": "Fc1cccc(-c2cccc3[nH]c(-c4n[nH]cc4/C=C/c4cncc(CN5CCCC5)c4)nc23)c1",
    "Emax at 2.7 µM / %": 81.7
  },
  {
    "smiles.repr": "O=C(Nc1ccc(CN2CCCC2)cc1)c1n[nH]cc1/C=C/c1cccnc1",
    "Emax at 2.7 µM / %": 194
  },
  {
    "smiles.repr": "O=C(Nc1cncc(-c2ccc3[nH]nc(-c4cc5cnccc5[nH]4)c3c2)c1)C1CCCCC1",
    "Emax at 2.7 µM / %": 155
  },
  {
    "smiles.repr": "C[C@@H]1CN(c2ccc(NC(=O)c3n[nH]c4ccc(-c5cncc(CN6CCCCC6)c5)cc34)cn2)C[C@H](C)O1",
    "Emax at 2.7 µM / %": 129
  }
]

Query compound follows.
IN: Endpoint output: Emax at 2.7 µM of Cn1cncc1-c1ccc2cnc(NC(=O)c3ccc(F)cc3)cc2c1 . Value?
OUT: 24.9

====

- experimental.details: Effect on Wnt signaling pathway in human SW480 cells harbouring TCF/LEF luciferase reporter gene and SP5-Luc reporter gene incubated for 36 to 48 hrs by luminescence assay
- Format: cell-based
readout.kind: EC50
Reply with a number, then the unit it belongs to.

Examples from the recorded data:
[
  {
    "smiles.repr": "Nc1cncc(-c2cnc3[nH]nc(-c4nc5c(-c6ccccc6F)ccnc5[nH]4)c3c2)c1",
    "result": "12.3 nM"
  },
  {
    "smiles.repr": "COc1cncc(C(=O)Nc2c[nH]nc2C(=O)Nc2ccc(OCCN3CCCC3)nc2)c1",
    "result": "22.3 nM"
  },
  {
    "smiles.repr": "CCC(=O)Nc1cncc(-c2cnc3[nH]nc(-c4cc5cnccc5[nH]4)c3c2)c1",
    "result": "960 nM"
  },
  {
    "smiles.repr": "CN1CCN(c2ccnc3[nH]c(-c4n[nH]c5ccc(-c6cncc(NC(=O)CC(C)(C)C)c6)nc45)cc23)CC1",
    "result": "3870 nM"
  },
  {
    "smiles.repr": "CN(C)Cc1cncc(-c2ccc3[nH]nc(-c4nc5c(-c6cccc(F)c6)cccc5[nH]4)c3n2)c1",
    "result": "637 nM"
  }
]

IN: Endpoint output: EC50 of CN(C)CCNc1cc(F)cc(-c2cccc3[nH]c(-c4n[nH]c5cnc(-c6cncc(O)c6)cc45)cc23)c1 . Value?
OUT: 405 nM

IN: Endpoint output: EC50 of CN(C)CCNc1cc(F)cc(-c2cncc3[nH]c(-c4n[nH]c5ncc(-c6cccnc6)cc45)nc23)c1 . Value?
OUT: 21 nM

IN: Endpoint output: EC50 of Cc1ccc(-c2cncc3[nH]c(-c4n[nH]c5cnc(-c6cncc(N)c6)cc45)nc23)s1 . Value?
OUT: 10.9 nM
